meta.source: patent US20260258044A1

# experiment_description: water solubility of the crystalline solid
# Format: physicochemical
# measurement_context: 37° C., after 24 hours
readout_type: water solubility (µg/mL)

compound: COc1cc(F)c(-c2cc(Cn3cnc4c(N)ncnc43)c(N3CCC[C@](N)([C@H](O)C(F)F)C3)cn2)cc1F.O=C(O)/C=C/C(=O)O [Form 1]
units_symbol: µg/mL
water solubility: 1400
//
compound: COc1cc(F)c(-c2cc(Cn3cnc4c(N)ncnc43)c(N3CCC[C@](N)([C@H](O)C(F)F)C3)cn2)cc1F.O=C(O)/C=C/C(=O)O [Form 3]
units_symbol: µg/mL
water solubility: 700

[P] COc1cc(F)c(-c2cc(Cn3cnc4c(N)ncnc43)c(N3CCC[C@](N)([C@H](O)C(F)F)C3)cn2)cc1F.O=C(O)/C=C/C(=O)O [Form 4]
[Q] COc1cc(F)c(-c2cc(Cn3cnc4c(N)ncnc43)c(N3CCC[C@](N)([C@H](O)C(F)F)C3)cn2)cc1F.O=C(O)/C=C/C(=O)O [Form 2]
Given the listed records, identify the one among P and Q with higher water solubility. Could you answer with the label of the item you picked? Q

* * *

# experiment_description: accelerated stability study (HPLC and XRPD of recovered salts)
# Format: physicochemical
# measurement_context: before storage
readout_type: HPLC Purity (Area %) Before Study

compound: COc1cc(F)c(-c2cc(Cn3cnc4c(N)ncnc43)c(N3CCC[C@](N)([C@H](O)C(F)F)C3)cn2)cc1F.O=C(O)/C=C/C(=O)O [Form 3]
HPLC Purity (Area %) Before Study: 99.58
//
compound: COc1cc(F)c(-c2cc(Cn3cnc4c(N)ncnc43)c(N3CCC[C@](N)([C@H](O)C(F)F)C3)cn2)cc1F.O=C(O)/C=C/C(=O)O [Form 4]
HPLC Purity (Area %) Before Study: 99.56
//
compound: COc1cc(F)c(-c2cc(Cn3cnc4c(N)ncnc43)c(N3CCC[C@](N)([C@H](O)C(F)F)C3)cn2)cc1F.O=C(O)/C=C/C(=O)O [Form 2]
HPLC Purity (Area %) Before Study: 99.51
//
compound: COc1cc(F)c(-c2cc(Cn3cnc4c(N)ncnc43)c(N3CCC[C@](N)([C@H](O)C(F)F)C3)cn2)cc1F.O=C(O)/C=C/C(=O)O [Form 1]
HPLC Purity (Area %) Before Study: 99.50

* * *

# experiment_description: water solubility of the crystalline solid
# Type: physicochemical
# measurement_context: 37° C., after 30 minutes
readout_type: water solubility (µg/mL)

molecule: COc1cc(F)c(-c2cc(Cn3cnc4c(N)ncnc43)c(N3CCC[C@](N)([C@H](O)C(F)F)C3)cn2)cc1F.O=C(O)/C=C/C(=O)O [Form 2]
water solubility [µg/mL]: 2200
//
molecule: COc1cc(F)c(-c2cc(Cn3cnc4c(N)ncnc43)c(N3CCC[C@](N)([C@H](O)C(F)F)C3)cn2)cc1F.O=C(O)/C=C/C(=O)O [Form 4]
water solubility [µg/mL]: 700

[P] COc1cc(F)c(-c2cc(Cn3cnc4c(N)ncnc43)c(N3CCC[C@](N)([C@H](O)C(F)F)C3)cn2)cc1F.O=C(O)/C=C/C(=O)O [Form 3]
[Q] COc1cc(F)c(-c2cc(Cn3cnc4c(N)ncnc43)c(N3CCC[C@](N)([C@H](O)C(F)F)C3)cn2)cc1F.O=C(O)/C=C/C(=O)O [Form 1]
Given the listed records, identify the one among P and Q with higher water solubility. Could you answer with the label of the item you picked? P
(P: 800 µg/mL, Q: 300 µg/mL)

* * *

# experiment_description: accelerated stability study (HPLC and XRPD of recovered salts)
# Format: physicochemical
# measurement_context: after one week at 75% relative humidity, 40° C.
readout_type: HPLC Purity (Area %) After Study

compound: COc1cc(F)c(-c2cc(Cn3cnc4c(N)ncnc43)c(N3CCC[C@](N)([C@H](O)C(F)F)C3)cn2)cc1F.O=C(O)/C=C/C(=O)O [Form 1]
units_symbol: Area %
HPLC Purity (Area %) After Study: 99.52
//
compound: COc1cc(F)c(-c2cc(Cn3cnc4c(N)ncnc43)c(N3CCC[C@](N)([C@H](O)C(F)F)C3)cn2)cc1F.O=C(O)/C=C/C(=O)O [Form 2]
units_symbol: Area %
HPLC Purity (Area %) After Study: 99.49
//
compound: COc1cc(F)c(-c2cc(Cn3cnc4c(N)ncnc43)c(N3CCC[C@](N)([C@H](O)C(F)F)C3)cn2)cc1F.O=C(O)/C=C/C(=O)O [Form 4]
units_symbol: Area %
HPLC Purity (Area %) After Study: 99.59
//
compound: COc1cc(F)c(-c2cc(Cn3cnc4c(N)ncnc43)c(N3CCC[C@](N)([C@H](O)C(F)F)C3)cn2)cc1F.O=C(O)/C=C/C(=O)O [Form 3]
units_symbol: Area %
HPLC Purity (Area %) After Study: 99.56
